# System: KM12 colon
# TEST_PROTOCOL: NCI-60 one-dose screen, 48 h (100 = growth as untreated, 0 = no growth, -100 = all killed)
# MEASUREMENT_PARAMETERS: 10 µM unless noted
About 83,000 compounds went through this panel and 20% of them were active in at least one assay; those are over-represented in the sample as a whole.
Could you please report measured growth for the items listed next?
Answers are plain numbers, in %.

Parameters: items (list). Returns: growth for each item.
1. CCCCn1c(C)nc2cc(Nc3nc(Cl)nc4nc[nH]c34)ccc21
2. COc1ccc(-c2cnc3ccnn3c2-c2cc(OC)c(OC)c(OC)c2)cc1
3. CC1=NN(c2cccc(S(N)(=O)=O)c2)C(=O)C1
4. C/C=C(\C)C(C(=O)NC1CCCCC1)N(C(=O)C1CCc2cc(F)ccc2O1)c1ccc([N+](=O)[O-])cc1 (stereo unspecified)

Response:
1: 97.3; 2: 16.1; 3: 107; 4: 95.8

Parameters: items (list). Returns: growth for each item.
1. O=S(=O)(NCC[C@@H]1C[C@H]1c1ccc2ccccc2c1)c1ccc(C(F)(F)F)cc1
2. Cc1cc(O)ccc1C1=NN(c2ccc(S(N)(=O)=O)cc2)C(=O)CC1

Response:
95.2
22.7

Every entry's value here was drawn from PubChem BioAssay (NCI).
